- tested_system: prostate specific membrane antigen (PSMA) on LNCaP cells (human, UniProt Q04609 1-750)
- Sequence (Q04609 whole entry): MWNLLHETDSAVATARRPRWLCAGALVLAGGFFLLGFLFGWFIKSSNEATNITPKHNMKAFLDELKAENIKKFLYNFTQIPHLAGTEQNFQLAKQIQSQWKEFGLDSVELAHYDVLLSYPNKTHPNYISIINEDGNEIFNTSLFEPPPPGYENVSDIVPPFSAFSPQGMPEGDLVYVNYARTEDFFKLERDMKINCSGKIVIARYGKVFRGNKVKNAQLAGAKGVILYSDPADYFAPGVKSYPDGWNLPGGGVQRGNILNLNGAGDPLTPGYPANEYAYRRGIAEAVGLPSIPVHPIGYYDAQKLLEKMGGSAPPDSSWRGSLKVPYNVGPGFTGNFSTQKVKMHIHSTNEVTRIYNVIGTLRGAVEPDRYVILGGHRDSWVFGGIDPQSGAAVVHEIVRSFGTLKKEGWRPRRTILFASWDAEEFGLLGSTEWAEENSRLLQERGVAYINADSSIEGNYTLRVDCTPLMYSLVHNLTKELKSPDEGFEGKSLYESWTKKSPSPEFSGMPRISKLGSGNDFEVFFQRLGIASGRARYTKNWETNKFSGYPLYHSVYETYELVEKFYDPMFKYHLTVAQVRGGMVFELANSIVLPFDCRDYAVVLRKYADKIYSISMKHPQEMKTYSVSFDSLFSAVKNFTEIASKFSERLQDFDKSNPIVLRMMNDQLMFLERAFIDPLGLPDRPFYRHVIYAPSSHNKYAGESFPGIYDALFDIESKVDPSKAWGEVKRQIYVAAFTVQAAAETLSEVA
- run_description: cell-based or functional assay
quantity_measured: ADCC % lysis at 1 µg/ml antibody, no anti-CD16 antibody

{"binder": "anti-PSMA human monoclonal antibody 7F12 expressed in eggs of chimeric chickens (lacks fucose residues) (antibody, IgG1, V domains shown, N-linked Fc glycans without fucosyl residues (high-mannose, complex and hybrid type)) VH: AVQLVQSGAEVKKPGESLKISCKGSGYSFTSFWIGWARQMPGKGLEWMGIIYPGDSDTRYSPSFQGQVTISADKSISTAYLQWSSLKASDTAMYYCATANSSFWNFDLWGRGTLVTVSS VL: EIVLTQSPATLSLSPGERATLSCRASQSVSSYLAWYQQKPGQAPRLLIYDASNRATGIPARFSGSGSGTDFTLTISSLEPEDFAVYYCQQRSNWLMYTFGQGTKLEIK", "reading": "~38%"}
{"binder": "anti-PSMA fully human monoclonal antibody 2A10 expressed in FUT8-/- Ms704 cells (defucosylated) (antibody, IgG1, V domains shown, N-linked glycans without fucose residues) VH: EVQLVQSGAEVKKPGESLKISCKGSGYSFTSNWIGWVRQMPGKGLEWMGIIYPGDSDTRYSPSFQGQVTISADKSISTAYLQWSSLKASDTAMYYCARQTGFLWSSDLWGRGTLVTVSS VL: AIQLTQSPSSLSASVGDRVTITCRASQDISSALAWYQQKPGKAPKLLIYDASSLESGVPSRFSGYGSGTDFTLTINSLQPEDFATYYCQQFNSYPLTFGGGTKVEIK", "reading": "~37%"}
{"binder": "anti-PSMA fully human monoclonal antibody 2A10 expressed in CHO DG44 cells (fucosylated) (antibody, V domains shown, N-linked glycans containing fucose) VH: EVQLVQSGAEVKKPGESLKISCKGSGYSFTSNWIGWVRQMPGKGLEWMGIIYPGDSDTRYSPSFQGQVTISADKSISTAYLQWSSLKASDTAMYYCARQTGFLWSSDLWGRGTLVTVSS VL: AIQLTQSPSSLSASVGDRVTITCRASQDISSALAWYQQKPGKAPKLLIYDASSLESGVPSRFSGYGSGTDFTLTINSLQPEDFATYYCQQFNSYPLTFGGGTKVEIK", "reading": "~12%"}
{"binder": "anti-PSMA human monoclonal antibody 7F12 expressed in CHO cells (fucosylated) (antibody, human IgG1, V domains shown, N-linked Fc glycans containing fucosyl residues) VH: AVQLVQSGAEVKKPGESLKISCKGSGYSFTSFWIGWARQMPGKGLEWMGIIYPGDSDTRYSPSFQGQVTISADKSISTAYLQWSSLKASDTAMYYCATANSSFWNFDLWGRGTLVTVSS VL: EIVLTQSPATLSLSPGERATLSCRASQSVSSYLAWYQQKPGQAPRLLIYDASNRATGIPARFSGSGSGTDFTLTISSLEPEDFAVYYCQQRSNWLMYTFGQGTKLEIK", "reading": "~15%"}
